Experiment: Effect on Wnt signaling pathway in human SW480 cells harbouring TCF/LEF luciferase reporter gene and SP5-Luc reporter gene incubated for 36 to 48 hrs by luminescence assay
Assay type: cell-based
pEC50: −log10 of the molar value.
quantity: pEC50

{"columns": ["record-smiles", "pEC50"],
 "data": [
  ["CCNCc1cncc(-c2cnc3[nH]nc(-c4cc5c(-c6ccccc6F)cncc5[nH]4)c3c2)c1", 5.64]
]}

[1] CN1CCN(c2cncc3[nH]c(-c4n[nH]c5ccc(-c6cncc(N7CCOCC7)c6)cc45)nc23)CC1
[2] CN1CCN(c2nccc3[nH]c(-c4n[nH]c5cnc(-c6cncc(NC(=O)C(C)(C)C)c6)cc45)cc23)CC1
[3] O=C(Nc1ccc(OC(F)F)cc1)c1n[nH]c2ccc(-c3cnc4n3CCNC4)cc12
// query Put the compounds in ascending order of pEC50. Answer by naming the labels in the order asked.
// result 2, 3, 1
(2: 5.73, 3: 6.16, 1: 7.08)

###

Biological target: Dual specificity tyrosine-phosphorylation-regulated kinase 1A (Homo sapiens)
Assay: Inhibition of recombinant DYRK1A (unknown origin) using Ser/Thr 18 peptide as substrate incubated for 1 hr in presence of ATP by FRET assay
quantity: EC50 (nM)

[1] CN1CCC(n2cc(NC(=O)c3n[nH]c4ccc(-c5cnn(C)c5)cc34)cn2)CC1
[2] CN1CCN(c2cccc3[nH]c(-c4n[nH]c5ncc(-c6cncc(CN7CCCCC7)c6)cc45)cc23)CC1
// query Lower value of EC50 belongs to which: 1 or 2 ? Respond using the label that marks the chosen record.
// result 1
(1: 1 nM, 2: 34 nM)

###

Biological target: Dual specificity tyrosine-phosphorylation-regulated kinase 1A (Homo sapiens, UniProt Q13627)
Assay: Inhibition of recombinant DYRK1A (unknown origin) using Ser/Thr 18 peptide as substrate incubated for 1 hr in presence of ATP by FRET assay
quantity: EC50 (nM)

{"columns": ["record-smiles", "test-value"],
 "data": [
  ["CN(C)Cc1cncc(-c2cnc3[nH]nc(-c4cc5c(-c6ccccc6F)cncc5[nH]4)c3c2)c1", 12]
]}

[A] CC(C)CC(=O)Nc1cncc(-c2ccc3[nH]nc(-c4nc5c(-c6cc(F)cc(NCCN(C)C)c6)cncc5[nH]4)c3c2)c1
[B] c1cc2[nH]c(-c3n[nH]c4ncc(-c5cncc(CN6CCCCC6)c5)cc34)cc2cn1
// query Of the two listed items, which has the higher EC50? First: A Second: B Respond using the label that marks the chosen record.
// result A

###

Test: Effect on Wnt signaling pathway in human SW480 cells harbouring TCF/LEF luciferase reporter gene and SP5-Luc reporter gene incubated for 36 to 48 hrs by luminescence assay
Type: cell-based
quantity: EC50

The following molecules have reported results that may help.
{"columns": ["record-smiles", "EC50"],
 "data": [
  ["O=C(CC1CCNCC1)Nc1cncc(-c2ccc3[nH]nc(-c4cc5c(-c6ccoc6)ccnc5[nH]4)c3n2)c1", "> 10 µM"],
  ["CC(C)CC(=O)Nc1cncc(-c2cnc3[nH]nc(-c4cc5c(-c6cccnc6)ccnc5[nH]4)c3c2)c1", "> 10 µM"],
  ["c1cncc(-c2ccc3[nH]nc(-c4cc5c(-c6cccnc6)ccnc5[nH]4)c3n2)c1", "> 10 µM"]
]}

// query Determine from records and report EC50 for CCNCc1cncc(-c2cnc3[nH]nc(-c4cc5c(-c6cc(F)cc(CNS(C)(=O)=O)c6)nccc5[nH]4)c3c2)c1
// result > 10 µM

###

Experiment: Effect on Wnt signaling pathway in human SW480 cells harbouring TCF/LEF luciferase reporter gene and SP5-Luc reporter gene incubated for 36 to 48 hrs by luminescence assay
Type: cell-based
quantity: EC50 (nM)

{"columns": ["record-smiles", "uom", "EC50"],
 "data": [
  ["O=C(Nc1cc2cc(-c3cncc(NCC4(F)CNC4)n3)ccc2cn1)C1CC1", "nM", 119],
  ["CN(C)C1CN(c2ncc(C(=O)Nc3cc4cc(-c5cnn(C)c5)ccc4cn3)s2)C1", "nM", 1320],
  ["CC(C)n1cc(C(=O)Nc2cc3cc(-c4cncn4C)ccc3cn2)cn1", "nM", 34.8],
  ["CN1CCN(c2nccc3[nH]c(-c4n[nH]cc4/C=C/c4cncc(F)c4)nc23)CC1", "nM", 325],
  ["Cc1ccc(-c2nccc3[nH]c(-c4n[nH]c5cnc(-c6cncc(N)c6)cc45)nc23)s1", "nM", 9.2]
]}

[a] FC1(F)CCN(Cc2cncc(-c3ccc4[nH]nc(-c5cc6c(-c7cccnc7)cncc6[nH]5)c4n3)c2)C1
[b] Cc1ncc(-c2ccc3[nH]nc(-c4nc5c(-c6cccc(F)c6)cccc5[nH]4)c3n2)n1C
[c] Nc1cncc(-c2ccc3[nH]nc(-c4nc5c(-c6ccccc6F)nccc5[nH]4)c3c2)c1
[d] CN(C)Cc1cncc(-c2cnc3[nH]nc(-c4nc5c(-c6ccsc6)cncc5[nH]4)c3c2)c1
// query List these items ordered by EC50, big to small. Answer by naming the labels in the order asked.
// result a, b, d, c
(a: 3850 nM, b: 150 nM, d: 57 nM, c: 8.8 nM)

[1] Nc1cncc(-c2ccc3[nH]nc(-c4cc5c(-c6ccccc6F)ccnc5[nH]4)c3c2)c1
[2] O=C(Nc1cc2cc(-c3cncc(CN4CCC(O)CC4)c3)ccc2cn1)c1ccc(F)cc1
// query Lower value of EC50 belongs to which: 1 or 2 ? Respond using the label that marks the chosen record.
// result 1
(1: 131 nM, 2: 382 nM)

###

Target: Dual specificity tyrosine-phosphorylation-regulated kinase 1A (Homo sapiens, UniProt Q13627)
Assay: Inhibition of recombinant DYRK1A (unknown origin) using Ser/Thr 18 peptide as substrate incubated for 1 hr in presence of ATP by FRET assay
quantity: EC50 (nM)

The following molecules have reported results that may help.
{"columns": ["record-smiles", "uom", "EC50"],
 "data": [
  ["Fc1cccc(-c2nccc3[nH]c(-c4n[nH]c5ccc(-c6cncc(CN7CCCCC7)c6)nc45)cc23)c1", "nM", 71],
  ["c1cncc(-c2cnc3[nH]nc(-c4nc5c(-c6cccnc6)cncc5[nH]4)c3c2)c1", "nM", 86],
  ["CC(C)CC(=O)Nc1cncc(-c2ccc3[nH]nc(-c4cc5c(N6CCN(C)CC6)ccnc5[nH]4)c3n2)c1", "nM", 5]
]}

[1] CCCCC(=O)Nc1cncc(-c2ccc3[nH]nc(-c4cc5c(N6CCCCC6)nccc5[nH]4)c3n2)c1
[2] CCNCc1cncc(-c2cnc3[nH]nc(-c4cc5c(-c6cc(F)cc(CNS(C)(=O)=O)c6)nccc5[nH]4)c3c2)c1
// query Lower value of EC50 belongs to which: 1 or 2 ? Respond using the label that marks the chosen record.
// result 2
(2: 30 nM, 1: 43 nM)

[A] O=C(Nc1cncc(-c2ccc3[nH]nc(-c4cc5c(-c6cccnc6)nccc5[nH]4)c3c2)c1)c1ccccc1
[B] CN1CCN(c2nccc3[nH]c(-c4n[nH]c5ccc(-c6cncc(N)c6)nc45)nc23)CC1
[C] O=C(Nc1ccc(-c2ccccc2)nc1)c1n[nH]c2ccc(-c3cncc(CN4CCCCC4)c3)cc12
// query Put the molecules in ascending order of EC50. Answer by naming the labels in the order asked.
// result C, A, B

[1] FC1(F)CCN(Cc2cncc(-c3ccc4[nH]nc(-c5nc6c(-c7ccsc7)cncc6[nH]5)c4c3)c2)C1
[2] FC1(F)CCN(Cc2cncc(-c3ccc4[nH]nc(-c5nc6c(N7CCCCC7)cncc6[nH]5)c4c3)c2)C1
// query Of the two listed items, which has the higher EC50? First: 1 Second: 2 Respond using the label that marks the chosen record.
// result 2
(2: 22 nM, 1: 15 nM)

[1] Cn1cc(-c2cc3c(-c4nc5c(-c6cccc(F)c6)nccc5[nH]4)n[nH]c3cn2)cn1
[2] O=C(Nc1cccnc1)c1n[nH]c2ccc(-c3cncc(CN4CCS(=O)(=O)CC4)c3)cc12
// query Lower value of EC50 belongs to which: 1 or 2 ? Respond using the label that marks the chosen record.
// result 2
(2: 2 nM, 1: 26 nM)

###

Test: Effect on Wnt signaling pathway in human SW480 cells harbouring TCF/LEF luciferase reporter gene and SP5-Luc reporter gene incubated for 36 to 48 hrs by luminescence assay
Assay type: cell-based
pEC50: −log10 of the molar value.
Entries annotated with measured pEC50

The following compounds have reported results that may help.
{"columns": ["record-smiles", "test-value"],
 "data": [
  ["CC(F)(F)CN1CCC(C(=O)Nc2cc3cc(-c4cnco4)cnc3cn2)CC1", "< 5.00"],
  ["O=C(Nc1cncc(-c2ccc3[nH]nc(-c4cc5c(-c6cccnc6)cncc5[nH]4)c3c2)c1)c1ccccc1", "< 5.00"]
]}

As a next step, examine the compound that follows.
// query Determine from records and report pEC50 for CN1CCN(c2nccc3[nH]c(-c4n[nH]c5cnc(-c6cncc(N)c6)cc45)cc23)CC1
// result < 5.00

Value source: ChEMBL document CHEMBL4739717
